# TESTED_TARGET: FLT3-ITD (Homo sapiens, UniProt P36888)
# Construct: FLT3-ITD; Invitrogen #PV6190
# TEST_DETAILS: FLT3-ITD biochemical kinase assay (AlphaScreen)
Would you kindly list IC50 for each of these molecules?

Inquiry: Field request: IC50 | item: c1cnc2[nH]cc(-c3ccc4[nH]cnc4c3)c2c1
Reply text: 1 to 10 µM

Inquiry: Can you check Fc1ccc(-n2cnc3ccc(-c4c[nH]c5ncc(-c6cccc(OC(F)(F)F)c6)cc45)cc32)cc1 next?
Reply text: 0.0001 to 1 µM

Inquiry: Can you check COc1cc(-c2cnc3[nH]cc(-c4ccc5ncsc5c4)c3n2)cc(C)n1 next?
Reply text: 0.0001 to 1 µM

Inquiry: Can you check Cc1ncc(C#Cc2cnc3[nH]cc(-c4ccc5ncn(C6CCCNC6)c5c4)c3n2)cn1 (stereo not shown) next?
Reply text: 0.0001 to 1 µM

Inquiry: Can you check Cn1cnc2ccc(-c3c[nH]c4ncc(-c5cccc(C#N)c5)nc34)cc21 next?
Reply text: 0.0001 to 1 µM

Inquiry: Can you check Cn1cnc2ccc(-c3c[nH]c4ncc(-c5ccc(S(=O)(=O)N6CCCC6)cc5)cc34)cc21 next?
Reply text: 0.0001 to 1 µM

Inquiry: Can you check Cc1cc(-c2cnc3[nH]cc(-c4ccc5ncn(C(C)(C)C)c5c4)c3n2)cnc1C#N next?
Reply text: 0.0001 to 1 µM

Inquiry: Can you check CC(C)(C)n1cnc2ccc(-c3c[nH]c4ncc(-c5cnc(F)c(F)c5)nc34)cc21 next?
Reply text: 1 to 10 µM

Inquiry: Can you check c1cc(N2CCOCC2)ccc1-c1cnc2[nH]cc(-c3ccc4ncn(C5CCCNC5)c4c3)c2n1 (stereo not shown) next?
Reply text: 0.0001 to 1 µM

Inquiry: Can you check CC(C)(C)n1cnc2ccc(-c3c[nH]c4ncc(-c5cncnc5)cc34)cc21 next?
Reply text: 0.0001 to 1 µM

====

Would you kindly list IC50 for each of these molecules?
# TESTED_TARGET: UniProtKB P10721
# TEST_DETAILS: c-Kit biochemical assay (per US 2007/0032519)

Inquiry: Field request: IC50 | item: CS(=O)(=O)Nc1cccc(-c2cnc3[nH]cc(-c4ccc5ncsc5c4)c3c2)c1 [P-053]
Reply text: 1 to 10 µM

Inquiry: Can you check CS(=O)(=O)Nc1cccc(-c2cnc3[nH]cc(-c4ccc5ncn(C6CCCC6)c5c4)c3n2)c1 [P-070] next?
Reply text: 1 to 10 µM

Inquiry: Can you check CS(=O)(=O)Nc1cccc(-c2cnc3[nH]cc(-c4ccc5c(c4)N(CC4CC4)CCO5)c3n2)c1 [P-081] next?
Reply text: 10 to 200 µM

Inquiry: Can you check COc1cnc2[nH]cc(-c3ccc4ncn(C5CC5)c4c3)c2c1 [P-060] next?
Reply text: 10 to 200 µM

====

# TESTED_TARGET: c-Kit (Homo sapiens)
# Sequence (P10721 26-976): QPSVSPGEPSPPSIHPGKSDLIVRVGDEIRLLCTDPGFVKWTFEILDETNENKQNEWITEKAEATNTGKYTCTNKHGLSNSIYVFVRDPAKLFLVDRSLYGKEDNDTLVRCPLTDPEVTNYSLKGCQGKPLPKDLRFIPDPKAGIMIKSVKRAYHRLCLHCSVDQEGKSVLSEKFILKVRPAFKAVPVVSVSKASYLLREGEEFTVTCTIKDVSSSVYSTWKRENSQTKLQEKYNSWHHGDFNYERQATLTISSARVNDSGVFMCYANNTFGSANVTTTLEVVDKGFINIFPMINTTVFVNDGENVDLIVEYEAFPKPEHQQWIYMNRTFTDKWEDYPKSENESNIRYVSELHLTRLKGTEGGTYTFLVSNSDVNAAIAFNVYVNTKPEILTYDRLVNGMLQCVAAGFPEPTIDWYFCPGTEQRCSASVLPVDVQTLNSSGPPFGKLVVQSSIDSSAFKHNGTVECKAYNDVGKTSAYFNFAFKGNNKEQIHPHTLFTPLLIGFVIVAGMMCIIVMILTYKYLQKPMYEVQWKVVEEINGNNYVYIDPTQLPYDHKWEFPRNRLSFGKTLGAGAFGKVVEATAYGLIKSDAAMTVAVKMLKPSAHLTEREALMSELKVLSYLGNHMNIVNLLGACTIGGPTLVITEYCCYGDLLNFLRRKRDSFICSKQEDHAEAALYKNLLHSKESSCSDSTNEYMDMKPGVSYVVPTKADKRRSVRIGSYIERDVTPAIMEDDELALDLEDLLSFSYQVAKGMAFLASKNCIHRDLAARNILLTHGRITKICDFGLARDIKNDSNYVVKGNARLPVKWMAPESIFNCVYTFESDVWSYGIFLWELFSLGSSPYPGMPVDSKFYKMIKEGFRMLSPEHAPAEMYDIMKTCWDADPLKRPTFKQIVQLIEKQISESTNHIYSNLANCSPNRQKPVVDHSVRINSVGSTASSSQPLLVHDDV
# TEST_DETAILS: c-Kit biochemical assay (per US 2007/0032519)
REPORTED_METRIC: IC50

Inquiry: Field request: IC50 | item: COc1cc(-c2cnc3[nH]cc(-c4ccc5ncn(C(C)(C)C)c5c4)c3n2)ccn1
Reply text: 1 to 10 µM

Inquiry: Can you check CC(=O)Nc1cccc(-c2cnc3[nH]cc(-c4ccc5ncn(C)c5c4)c3c2)c1 next?
Reply text: 1 to 10 µM

Inquiry: Can you check CNS(=O)(=O)c1cccc(-c2cnc3[nH]cc(-c4ccc5ncn(C)c5c4)c3n2)c1 next?
Reply text: 1 to 10 µM

Inquiry: Can you check O=S(=O)(C1CC1)N1CCC=C(c2cnc3[nH]cc(-c4ccc5[nH]cnc5c4)c3c2)C1 next?
Reply text: 10 to 200 µM

Inquiry: Can you check c1cnc2[nH]cc(-c3ccc4ncsc4c3)c2c1 next?
Reply text: 1 to 10 µM

Inquiry: Can you check CNS(=O)(=O)c1cccc(-c2cnc3[nH]cc(-c4ccc5ncn(C)c5c4)c3c2)c1 next?
Reply text: 10 to 200 µM

Inquiry: Can you check CC(C)(C)n1cnc2ccc(-c3c[nH]c4ncc(C5=CCN(C(=O)C6CC6)C5)cc34)cc21 next?
Reply text: 10 to 200 µM

Inquiry: Can you check COc1cnc2[nH]cc(-c3ccc4ncn(-c5cccc(C#N)c5)c4c3)c2c1 next?
Reply text: 10 to 200 µM
